assayedSystem: T1, GST-ZO-1 PDZ domain 2 fusion protein (human)
T1 chain: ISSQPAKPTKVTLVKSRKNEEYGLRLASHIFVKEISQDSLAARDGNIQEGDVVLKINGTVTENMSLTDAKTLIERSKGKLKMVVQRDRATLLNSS
assayDetails: G3 assay titration, immobilised GST-PDZ
No end group written: not given here. *: point of attachment. Biotin = O=C1N[C@H]2[C@H](CS[C@H]2CCCCC(=O)*)N1
Recorded ODmax (450 nm), one value per entry.
quantityKind: ODmax (450 nm)

In [3]: df
Out[3]:
                                      binder       reported
 0  Biotin-YGRKKRRQRRRARTDRKVEV [Peptide #1837 (biotin-…)]  1.8 OD 450 nm
 1  Biotin-YGRKKRRQRRRQDERRLIVL [Peptide #1842 (biotin-…)]  2.3 OD 450 nm
 2  YGRKKRRQRRRSTNSVRLML (not fully specified)  2.2 OD 450 nm
 3  Biotin-YGRKKRRQRRRSRTDRKYWA [Peptide #1832 (biotin-…)]  2.1 OD 450 nm
 4  Biotin-YGRKKRRQRRRARGDRLVSL [Peptide #1843 (biotin-…)]  2.2 OD 450 nm
 5  Biotin-YGRKKRRQRRRARSDRTIIA [Peptide #1830 (biotin-…)]  1.8 OD 450 nm
 6  Biotin-YGRKKRRQRRRARGDRKYIV [Peptide #1838 (biotin-…)]  2.6 OD 450 nm
 7  Biotin-YGRKKRRQRRRARGDRTIIY [Peptide #1848 (biotin-…)]  2.2 OD 450 nm
 8  Biotin-YGRKKRRQRRRSRTDRKYQI [Peptide #1839 (biotin-…)]  2.5 OD 450 nm
 9  Biotin-YGRKKRRQRRRARGRRETWV [Peptide #1854 (biotin-…)]  2.8 OD 450 nm
10  Biotin-YGRKKRRQRRRARSDRTIWA [Peptide #1829 (biotin-…)]  2.9 OD 450 nm
11  Biotin-YGRKKRRQRRRARGDRYRIV [Peptide #1845 (biotin-…)]  2.3 OD 450 nm
12  Biotin-YGRKKRRQRRRARGDRKIRV [Peptide #1836 (biotin-…)]  2.6 OD 450 nm
13  Biotin-YGRKKRRQRRRARGTRLVWV [Peptide #1844 (biotin-…)]  2.6 OD 450 nm
